Below, each of the compounds is paired with its reported max response, negative = inhibition value.
- tested.target: D(3) dopamine receptor (Homo sapiens)
- measurement.notes: qHTS of D3 Dopamine Receptor Antagonist: qHTS; further: on the % scale 0 is the no-effect control and ±100 the full control effect
- test.context: D3R cells, DiscoveRx beta-arrestin luminescence, antagonist mode; stronger effect = lower value
The whole screen tested about 360,000 compounds, of which about 9,100 (2.5%) were called active. Another 4% or so got no clear call; they are omitted. Many of the other results were omitted from the sample, so actives are more common in it than they were.
Express it in %; write the number only.

Consider the worked cases shown below.
compound	tested.target	measure	number
Cc1cccc(N(C)C(=O)c2cc3c(=O)[nH]c4ccc(C)cc4c3s2)c1	D(3) dopamine receptor (Homo sapiens)	max response, negative = inhibition	-15.8
O=C1[C@H]2[C@@H](c3ccc(C(F)(F)F)cc3)N[C@]3(CCCN(Cc4ccc(Br)cc4)C3=O)[C@H]2C(=O)N1Cc1ccccc1	D(3) dopamine receptor (Homo sapiens)	max response, negative = inhibition	29.8
CCc1cc(-c2nnn(CCC3COCCO3)c2CC)ccc1-c1cn(Cc2ccc3ccccc3c2)nn1 (stereo not given)	D(3) dopamine receptor (Homo sapiens)	max response, negative = inhibition	-10.8
CCCCCc1c(Cc2ccccc2)ncn1CCc1ccccc1OC	D(3) dopamine receptor (Homo sapiens)	max response, negative = inhibition	-13.9
CC(=O)Nc1ccc(-c2ccnc3c2CC(C(=O)NC(C)C)O3)cc1 (stereo not given)	D(3) dopamine receptor (Homo sapiens)	max response, negative = inhibition	23.5

Q: For CCCCc1ccc(S(=O)(=O)NC(=O)C2(C)CCN2C(=O)c2ccccc2)cc1 (stereo not given) , what is its reported max response, negative = inhibition?
A: 0.751

Q: What do we get for CCc1ccccc1OCC(=O)Nc1nnc(C2CC2)s1 ?
A: -9.37

Q: What do we get for CC1=C(C(=O)Nc2cccc(C(=O)NCC(C)c3ccccc3)c2)SCCO1 (stereo not given) ?
A: 104

Q: What do we get for C[C@@H]1CN([C@H](C)CO)S(=O)(=O)c2ccc(C#C[C@@H](C)O)cc2O[C@@H]1CN(C)Cc1ccc(-c2ccccc2)cc1 ?
A: 4.33

Q: What do we get for Nc1[nH]c(C(=O)c2ccccc2)c(-c2ccncc2)c1C(=O)NCc1cccc2ccccc12 ?
A: -9.51

====

- tested.target: D(3) dopamine receptor (Homo sapiens) (UniProt P35462)
- Sequence (P35462 whole entry, looked up): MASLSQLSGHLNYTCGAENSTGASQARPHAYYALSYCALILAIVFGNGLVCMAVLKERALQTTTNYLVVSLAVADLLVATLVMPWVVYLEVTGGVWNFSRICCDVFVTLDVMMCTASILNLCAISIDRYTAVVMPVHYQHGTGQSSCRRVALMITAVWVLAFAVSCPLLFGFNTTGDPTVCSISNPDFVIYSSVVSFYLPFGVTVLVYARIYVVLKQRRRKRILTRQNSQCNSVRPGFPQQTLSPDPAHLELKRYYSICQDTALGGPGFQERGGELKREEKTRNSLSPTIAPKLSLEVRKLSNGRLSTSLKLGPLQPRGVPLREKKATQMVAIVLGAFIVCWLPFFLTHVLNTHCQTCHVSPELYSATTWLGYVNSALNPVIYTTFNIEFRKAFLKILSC
- measurement.notes: qHTS of D3 Dopamine Receptor Antagonist: qHTS; further: on the % scale 0 is the no-effect control and ±100 the full control effect
- test.context: D3R cells, DiscoveRx beta-arrestin luminescence, antagonist mode
Hit rate of the full screen: of about 360,000 compounds, about 9,100 (2.5%) were called active. Not shown: some 4% with an inconclusive outcome. Rule as the data show it: active = max response below about -50%; inconclusive = no clear call, values can overlap the other calls; inactive = above that. The sample as a whole holds a higher share of actives than the screen did.
Permitted responses: 1 for active, 0 for inactive

molecule	qualitative.label
O=C(C[C@H]1CC[C@H]2[C@@H](COC[C@H](O)CN2C(=O)c2ccccn2)O1)N1CCN(c2ccccc2)CC1	0
O=C(C[C@H]1CC[C@@H](NC(=O)c2ccncc2)[C@@H](CO)O1)NCC1CC1	0
OCCC1CN(Cc2cccc(O)c2)CCN1CCc1ccccc1 (stereo unspecified)	1
CN(C)CCCOc1ccc(-c2ccc3nccn3c2)cn1	0
OCCC1CN(Cc2ccccc2-c2ccco2)CCN1Cc1ccsc1 (stereo unspecified)	0

Q: Tell me the assay call for CS(=O)(=O)c1cccc(-c2ccc3nncn3c2)c1 please.
A: 0

Q: What do we get for COc1cccc(CN2CCN(Cc3ccc4cccc(F)c4n3)CC2CCO)c1 (stereo unspecified) ?
A: 1

Q: What do we get for OCCC1CN(Cc2cccc(OC3CCCC3)c2)CCN1Cc1ccsc1 (stereo unspecified) ?
A: 1
